Items are presented alongside their recorded % Max Derepression LPL.
- targetOrSystem: T1, mouse ANGPTL3/8 complex (mouse, UniProt Q9R182 17-455; Q8R1L8 16-198, limits assumed)
- T1 sequence (looked up) 1: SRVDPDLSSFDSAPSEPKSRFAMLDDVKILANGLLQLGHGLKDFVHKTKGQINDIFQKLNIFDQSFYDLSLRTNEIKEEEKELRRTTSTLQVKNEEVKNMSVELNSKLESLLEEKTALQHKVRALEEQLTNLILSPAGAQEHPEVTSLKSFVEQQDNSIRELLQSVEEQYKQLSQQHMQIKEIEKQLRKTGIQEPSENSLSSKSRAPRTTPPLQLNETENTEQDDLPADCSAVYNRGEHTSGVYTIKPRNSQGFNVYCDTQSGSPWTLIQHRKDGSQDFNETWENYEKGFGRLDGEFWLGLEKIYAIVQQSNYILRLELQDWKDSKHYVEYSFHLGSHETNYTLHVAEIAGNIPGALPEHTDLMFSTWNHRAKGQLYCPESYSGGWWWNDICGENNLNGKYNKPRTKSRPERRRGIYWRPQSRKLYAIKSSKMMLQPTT
- T1 sequence (looked up) 2: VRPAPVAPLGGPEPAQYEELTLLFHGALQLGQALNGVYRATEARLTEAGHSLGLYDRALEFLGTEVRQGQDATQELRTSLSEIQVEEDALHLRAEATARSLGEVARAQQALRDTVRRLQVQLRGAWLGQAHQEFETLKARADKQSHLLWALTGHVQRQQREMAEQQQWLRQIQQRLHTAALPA
- procedureText: cell-based or functional assay
parameterMeasured: % Max Derepression LPL (%)

| binder | parameterMeasured | number |
| --- | --- | --- |
| Ab with LC variant having a D33T mutation (SEQ ID NO:23) and a HC of SEQ ID NO:6 (antibody, human IgG4 S228P, kappa, F234A L235A, V domains shown, also called D33T Ab) VH: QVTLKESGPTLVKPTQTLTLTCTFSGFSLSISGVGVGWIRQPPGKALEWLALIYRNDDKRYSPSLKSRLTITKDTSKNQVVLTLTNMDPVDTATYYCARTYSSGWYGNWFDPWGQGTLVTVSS VL: DIVMTQTPLSLPVTPGEPASISCRSSQSLLDSTDGNTYLDWYLQKPGQSPQLLIYMLSYRASGVPDRFSGSGSGTDFTLKISRVEAEDVGIYYCMQRIEFPLTFGGGTKVEIKR | % Max Derepression LPL | 114 |
| Ab with LC variant having a D33A mutation (SEQ ID NO:22) and a HC of SEQ ID NO:6 (antibody, human IgG4 S228P, kappa, F234A L235A, V domains shown, also called D33A Variant Ab; D33A Ab) VH: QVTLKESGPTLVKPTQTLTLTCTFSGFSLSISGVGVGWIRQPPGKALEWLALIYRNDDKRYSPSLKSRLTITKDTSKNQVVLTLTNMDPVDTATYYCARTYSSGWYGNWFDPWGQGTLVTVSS VL: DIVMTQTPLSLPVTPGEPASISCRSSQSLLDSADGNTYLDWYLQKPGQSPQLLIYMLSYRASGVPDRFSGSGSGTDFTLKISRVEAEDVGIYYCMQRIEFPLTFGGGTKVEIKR | % Max Derepression LPL | 106 |
| Ab with LC variant having a D31S mutation (SEQ ID NO:21) and a HC of SEQ ID NO:6 (antibody, human IgG4 S228P, kappa, F234A L235A, V domains shown, also called D31S Variant Ab; D31S Ab) VH: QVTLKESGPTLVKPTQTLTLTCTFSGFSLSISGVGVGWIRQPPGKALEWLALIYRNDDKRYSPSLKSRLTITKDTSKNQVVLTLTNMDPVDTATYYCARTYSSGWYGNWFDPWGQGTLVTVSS VL: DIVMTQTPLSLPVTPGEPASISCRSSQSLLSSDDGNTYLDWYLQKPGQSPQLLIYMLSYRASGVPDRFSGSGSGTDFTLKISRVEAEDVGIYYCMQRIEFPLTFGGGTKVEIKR | % Max Derepression LPL | 110 |
| Ab with LC variant having a E99Q mutation (SEQ ID NO:25) and a HC of SEQ ID NO:6 (antibody, human IgG4 S228P, kappa, F234A L235A, V domains shown, also called E99Q Variant Ab; E99Q Ab) VH: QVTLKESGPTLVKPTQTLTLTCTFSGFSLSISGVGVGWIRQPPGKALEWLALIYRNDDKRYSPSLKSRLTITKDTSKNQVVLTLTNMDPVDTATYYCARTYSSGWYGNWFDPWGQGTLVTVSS VL: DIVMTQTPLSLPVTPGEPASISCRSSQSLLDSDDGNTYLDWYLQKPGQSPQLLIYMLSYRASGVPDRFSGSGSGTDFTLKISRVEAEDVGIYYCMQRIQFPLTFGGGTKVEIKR | % Max Derepression LPL | 110 |
